The measured values listed here are drawn from PubChem BioAssay (Tox21).

test: qHTS RealTime-Glo MT Cell Viability Assay in HEK293 cells - 32 hour (AID 1224868); settings: RealTime-Glo luminescence; series mostly up to 76.8 µM; also: nearly all actives have a fitted effect of over 50% in size
Inconclusive results are not listed. Calls of active or inactive are those of the source. Calls follow the shape of the dose curve; as a rule, active = well fitted cell-killing curve with a large enough effect in the repeat runs; inconclusive = weak or mixed curves, or effect the other way; inactive = flat fitted curve, though single readings scatter.
Outcome field: choose from active, inactive

These recorded examples may help you get a feel for the data.
CC(C)CCOC(=O)c1ccc(N(C)C)cc1
inactive
CCCOC(=O)c1cc(O)c(O)c(O)c1
active
CC(=O)C1=C(C)[C@@H]2C[C@@]3(C1)[C@H](C)CC[C@H]3C2(C)C
inactive

# outcome recorded in this test, key = `COc1ccc(Cc2cnc(N)nc2N)cc1OC`
inactive

# outcome recorded in this test, key = `CC(C)CCOCc1ccccc1`
inactive

# outcome recorded in this test, key = `NCCO`
inactive

# outcome recorded in this test, key = BrC1CCC(Br)C(Br)CCC(Br)C(Br)CCC1Br (configuration not stated)
inactive

# outcome recorded in this test, key = `O=C(O)CP(=O)(O)O`
inactive

# outcome recorded in this test, key = `CCc1cc(C(C)(C)C)c(O)c(C(C)(C)C)c1`
inactive

# outcome recorded in this test, key = CCCCCCC(O)CCCCCCCCCCC(=O)O (configuration not stated)
inactive

# outcome recorded in this test, key = c1cc(C(c2ccc(OCC3CO3)cc2)C(c2ccc(OCC3CO3)cc2)c2ccc(OCC3CO3)cc2)ccc1OCC1CO1 (configuration not stated)
inactive

# outcome recorded in this test, key = `OCCN1CCNCC1`
active

# outcome recorded in this test, key = `CN(C)c1ccc(C(=C2C=CC(=[N+](C)C)C=C2)c2ccccc2)cc1`
active

# outcome recorded in this test, key = `CCOc1ccccc1C(N)=O`
inactive

# outcome recorded in this test, key = `Cc1ccnc2c1NC(=O)c1cccnc1N2C1CC1`
inactive

# outcome recorded in this test, key = `CC(C)(C)c1cc(C(C)(C)C)c(O)c(C(C)(C)C)c1`
inactive

# outcome recorded in this test, key = CCn1cc(C(=O)O)c(=O)c2cc(F)c(N3CCNC(C)C3)c(F)c21 (configuration not stated)
inactive

# outcome recorded in this test, key = `C=C(C)C(=O)O`
inactive

# outcome recorded in this test, key = `NNCCc1ccccc1`
inactive

# outcome recorded in this test, key = `Nc1ccc2cc3ccccc3cc2c1`
inactive

# outcome recorded in this test, key = `O=C(O)CCc1ccccc1`
inactive

# outcome recorded in this test, key = `CC(=O)N[C@@H](CS)C(=O)O`
inactive

----------
assay: A CellTox Green Cytotoxicity Assay to monitor cytotoxicity in HEK293 cells - 16 hour (AID 1224888); details: CellTox Green fluorescence; series mostly up to 76.8 µM; also: nearly all actives have a fitted effect of over 35% in size
Results filed as inconclusive are left out. Active and inactive are the calls of the source. Calls come from the whole dose curve; as a rule, active = well fitted activation curve with a large enough effect in the repeat runs; inconclusive = weak or mixed curves; inactive = flat fitted curve, though single readings scatter.
assay.endpoint: outcome

Before answering, review these 7 worked examples.
c1ccc2c(c1)-c1cccc3c1c-2cc1ccccc13
inactive
Nc1ccc(O)cc1
inactive
CC(=O)C1=C(C)[C@@H]2C[C@@]3(C1)[C@H](C)CC[C@H]3C2(C)C
inactive
O=C(O)c1cn(-c2ccc(F)cc2)c2cc(N3CCNCC3)c(F)cc2c1=O
inactive
COc1ccc(COC(C)=O)cc1
inactive
O=C(Oc1ccccc1)c1ccccc1O
inactive
CCOC(=O)C(C)C(C)=O (stereo not drawn)
inactive

Now let's try a different one.
For `Cc1cccc([N+](=O)[O-])c1C(=O)O` , what is its reported outcome?
inactive

----------
assay: qHTS assay to identify small molecule antagonists of the estrogen related receptor (ERR) signaling pathway from Tox21 library (AID 1224848); details: ERR reporter cell line, luciferase antagonist mode, 18 h; series mostly up to 92.4 µM; also: nearly all actives have a fitted effect of over 50% in size
Inconclusive results are not listed. Active and inactive are the calls of the source. Calls follow the shape of the dose curve; as a rule, active = well fitted inhibition curve with a large enough effect in the repeat runs; inconclusive = weak or mixed curves; inactive = no such curve, though single readings can be large or run the other way.
Outcome field: choose from active, inactive

These recorded examples may help you get a feel for the data.
CCOC(=O)C(C)C(C)=O (centres undefined)
inactive
CN1C(=O)c2ccc([N+](=O)[O-])cc2C1=O
inactive
CC(C)(C)NCC(O)COc1ccccc1OCC1CCCO1 (centres undefined)
inactive
CC(C)(C)c1ccccc1
inactive
CCCCN(CCO)CCCC
inactive
CN(C)c1ccc(C(=C2C=CC(=[N+](C)C)C=C2)c2ccccc2)cc1
active
Cc1cccc2n[nH]nc12
inactive
c1cc(C(c2ccc(OCC3CO3)cc2)C(c2ccc(OCC3CO3)cc2)c2ccc(OCC3CO3)cc2)ccc1OCC1CO1 (centres undefined)
inactive
NC(=Nc1ccccc1)Nc1ccccc1
inactive
CC(C)CCOCc1ccccc1
inactive

# outcome recorded in this test, key = `NC(N)=Nc1nc(CSCC/C(N)=N/S(N)(=O)=O)cs1`
inactive

# outcome recorded in this test, key = `CC(=O)CC(=O)Nc1ccc2[nH]c(=O)[nH]c2c1`
inactive

# outcome recorded in this test, key = C=C(C)C1CC=C(C)C(OC(C)=O)C1 (centres undefined)
inactive

----------
test: qHTS assay for small molecule agonists of the p53 signaling pathway (AID 651631); details: HCT-116 p53RE-bla reporter, beta-lactamase FRET ratio, 16 h; series mostly up to 73.3 µM; also: nearly all actives have a fitted effect of over 15% in size
Results filed as inconclusive are left out. Activity calls are given as the source filed them. Calls come from the whole dose curve.
assay.endpoint: outcome

C/C=C/c1ccc(OCC)c(O)c1
inactive
O=S(=O)(O)c1ccc2nc(-c3ccccc3)[nH]c2c1
inactive
Cc1cc(C2(c3cc(C)c(O)cc3C)OS(=O)(=O)c3ccccc32)c(C)cc1O
inactive

----------
assay: qHTS assay to identify small molecule antagonists of the peroxisome proliferator-activated receptor gamma (PPARg) signaling pathway - cell viability counter screen (AID 743194); details: PPARg-bla HEK293H viability, CellTiter-Glo luminescence, 17 h, co-treated with 50 nM rosiglitazone; series mostly up to 62.6 µM; also: nearly all actives have a fitted effect of over 55% in size; also: potency is read from the fitted curve at half-maximal effect
Inconclusive results are not listed. Active and inactive are the calls of the source. Calls come from the whole dose curve; as a rule, active = well fitted cell-killing curve with a large enough effect in the repeat runs; inconclusive = weak or mixed curves, or effect the other way; inactive = no such curve, though single readings can be large or run the other way.
assay.endpoint: Potency

Before answering, review these 6 worked examples.
CC(C(O)c1ccc(O)cc1)N1CCC(Cc2ccccc2)CC1 (stereo not given)
inactive
c1ccc2c(c1)-c1cccc3c1c-2cc1ccccc13
inactive
CC(=O)Nc1ccc(C(=O)CCl)cc1
13.8 µM (active)
CCCCCCC(O)CCCCCCCCCCC(=O)O (stereo not given)
21.9 µM (active)
Cc1cccc2n[nH]nc12
inactive
NC(N)=Nc1nc(CSCC/C(N)=N/S(N)(=O)=O)cs1
inactive

Now let's try a different one.
For `NC12CC3CC(CC(C3)C1)C2` , what is its reported Potency?
inactive

----------
experiment: A CellTox Green Cytotoxicity Assay to monitor cytotoxicity in HepG2 cells - 32 hour (AID 1224883); details: CellTox Green fluorescence; series mostly up to 76.8 µM; also: nearly all actives have a fitted effect of over 50% in size
Records with an inconclusive call do not appear. Activity calls are given as the source filed them. The call rests on the fitted dose curve; in most records, active means well fitted activation curve with a large enough effect in the repeat runs; inconclusive means weak or mixed curves; inactive means flat fitted curve, though single readings scatter.
Outcome field: choose from True (active), False (inactive)

Cc1ccnc2c1NC(=O)c1cccnc1N2C1CC1
False
CC(=O)N[C@@H](CS)C(=O)O
False

Consider the record given below.
# outcome recorded in this test, key = CC(COc1ccccc1)N(CCCl)Cc1ccccc1 (stereo unspecified)
True

----------
experiment: qHTS assay for identifying genotoxic compounds that show differential cytotoxicity against isogenic chicken DT40 cell lines with known DNA damage response pathways - Rev3 mutant cell line (AID 743014); conditions: chicken DT40 Rev3-/- viability, CellTiter-Glo, 40 h; series mostly up to 68.4 µM; also: nearly all actives have a fitted effect of over 55% in size
Results filed as inconclusive are left out. Activity calls are given as the source filed them. The call rests on the fitted dose curve; in most records, active means well fitted cell-killing curve with a large enough effect in the repeat runs; inconclusive means weak or mixed curves, or effect the other way; inactive means no such curve, though single readings can be large or run the other way.
Outcome field: choose from T for active, F for inactive

CN1C(=O)c2ccc([N+](=O)[O-])cc2C1=O
F

# outcome recorded in this test, key = `NNCCc1ccccc1`
F

# outcome recorded in this test, key = `CC(=O)N[C@@H](CS)C(=O)O`
F

----------
assay: qHTS RealTime-Glo MT Cell Viability Assay in HepG2 cells - 32 hour (AID 1224877); conditions: RealTime-Glo luminescence; series mostly up to 76.8 µM; also: nearly all actives have a fitted effect of over 55% in size
Results filed as inconclusive are left out. The source made the active and inactive calls. The call rests on the fitted dose curve; in most records, active means well fitted cell-killing curve with a large enough effect in the repeat runs; inconclusive means weak or mixed curves; inactive means flat fitted curve, though single readings scatter.
Outcome field: choose from class 1 for active, class 0 for inactive

These recorded examples may help you get a feel for the data.
Cc1scc2c1N(C(=O)CN1CCN(C)CC1)c1ccccc1NC2=O
class 0
O=C(O)CP(=O)(O)O
class 0
O=C(O)Cn1cnnn1
class 0

# outcome recorded in this test, key = `O`
class 0

# outcome recorded in this test, key = `C1COC(NC(C2CC2)C2CC2)=N1`
class 0

# outcome recorded in this test, key = `CC(=O)CC(C)=O`
class 0

# outcome recorded in this test, key = `CCCCCC(=O)O[C@]1(C(C)=O)CC[C@H]2[C@@H]3CCC4=CC(=O)CC[C@]4(C)[C@H]3CC[C@@]21C`
class 0

# outcome recorded in this test, key = `NC(=Nc1ccccc1)Nc1ccccc1`
class 0

# outcome recorded in this test, key = `CC1=CC(=O)c2ccccc2C1=O`
class 1

# outcome recorded in this test, key = `CC(=O)CC(=O)Nc1ccc2[nH]c(=O)[nH]c2c1`
class 0

# outcome recorded in this test, key = `Cc1cc(C(C)(C)C)c(O)c(C(C)(C)C)c1`
class 0

# outcome recorded in this test, key = `O=C1CC2(CCCC2)CC(=O)N1CCCCN1CCN(c2ncccn2)CC1`
class 0

# outcome recorded in this test, key = CCN(CC)C(=O)Nc1ccc(OCC(O)CNC(C)(C)C)c(C(C)=O)c1 (centres undefined)
class 0

# outcome recorded in this test, key = `COC(=O)/C=C/c1ccccc1`
class 0
